target: Inhibitor of nuclear factor kappa-B kinase subunit alpha (Homo sapiens) (UniProt O15111); conditions: at 1 µM
Sequence (O15111 whole entry): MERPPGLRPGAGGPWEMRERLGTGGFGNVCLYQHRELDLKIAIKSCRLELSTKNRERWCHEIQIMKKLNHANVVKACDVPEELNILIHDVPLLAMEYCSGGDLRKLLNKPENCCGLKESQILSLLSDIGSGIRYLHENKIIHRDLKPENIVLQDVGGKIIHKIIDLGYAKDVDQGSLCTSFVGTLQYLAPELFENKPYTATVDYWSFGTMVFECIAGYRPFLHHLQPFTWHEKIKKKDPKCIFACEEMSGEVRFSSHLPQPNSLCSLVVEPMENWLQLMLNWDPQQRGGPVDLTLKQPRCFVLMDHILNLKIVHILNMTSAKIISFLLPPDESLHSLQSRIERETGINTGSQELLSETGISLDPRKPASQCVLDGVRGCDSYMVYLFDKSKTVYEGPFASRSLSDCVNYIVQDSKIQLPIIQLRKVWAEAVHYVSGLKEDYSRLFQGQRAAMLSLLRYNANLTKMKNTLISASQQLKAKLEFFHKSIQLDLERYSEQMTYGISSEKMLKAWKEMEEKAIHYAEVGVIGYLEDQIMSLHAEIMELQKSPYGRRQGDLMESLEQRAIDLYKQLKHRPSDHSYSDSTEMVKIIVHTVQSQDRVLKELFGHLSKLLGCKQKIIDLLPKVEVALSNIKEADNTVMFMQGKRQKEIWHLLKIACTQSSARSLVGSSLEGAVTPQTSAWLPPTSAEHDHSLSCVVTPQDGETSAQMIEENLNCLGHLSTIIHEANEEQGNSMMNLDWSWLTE
Would you mind labelling by residual activity? At or over 90% is 1.0, under is 0.0.

compound=COc1ccc2c(c1)/C(=C/c1cnc[nH]1)C(=O)N2 target_under_test="Inhibitor of nuclear factor kappa-B kinase subunit alpha (Homo sapiens) (UniProt O15111)" group=0.0
compound=COC(=O)[C@@]1(O)C[C@H]2O[C@]1(C)n1c3ccccc3c3c4c(c5c6ccccc6n2c5c31)C(=O)NC4 target_under_test="Inhibitor of nuclear factor kappa-B kinase subunit alpha (Homo sapiens) (UniProt O15111)" group=0.0
compound=O=C1Nc2ccc3ncsc3c2/C1=C/c1c[nH]cn1 target_under_test="Inhibitor of nuclear factor kappa-B kinase subunit alpha (Homo sapiens) (UniProt O15111)" group=0.0
compound=O=C1NC(=O)c2c1c1c3ccccc3n3c1c1c2c2ccccc2n1C1CCC3O1 target_under_test="Inhibitor of nuclear factor kappa-B kinase subunit alpha (Homo sapiens) (UniProt O15111)" group=1.0
compound=O=c1[nH]c2ccccc2n1C1CCN(Cc2ccc(-c3nc4cc5[nH]cnc5cc4nc3-c3ccccc3)cc2)CC1 target_under_test="Inhibitor of nuclear factor kappa-B kinase subunit alpha (Homo sapiens) (UniProt O15111)" group=1.0
compound="C[S+]([O-])c1ccc(-c2nc(-c3ccc(F)cc3)c(-c3ccncc3)[nH]2)cc1 (configuration not stated)" target_under_test="Inhibitor of nuclear factor kappa-B kinase subunit alpha (Homo sapiens) (UniProt O15111)" group=1.0
compound=COc1ccc2c(c[n+](C)c3c4cc5c(cc4ccc23)OCO5)c1OC target_under_test="Inhibitor of nuclear factor kappa-B kinase subunit alpha (Homo sapiens) (UniProt O15111)" group=1.0

----------
molecular target: Death-associated protein kinase 1 (Homo sapiens); settings: at 1 µM
ASSAY_METRIC: residual activity (%)

sample_smiles=Cc1cccc(-c2[nH]c(C(C)(C)C)nc2-c2ccc3c(c2)OCO3)n1 assay_metric="residual activity" unit_info=% observed=79
sample_smiles=CCN1/C(=C/C(C)=O)Sc2ccc(OC)cc21 assay_metric="residual activity" unit_info=% observed=81
sample_smiles=CC(C)N(CCC(=O)c1ccc2ccccc2c1)Cc1ccccc1 assay_metric="residual activity" unit_info=% observed=86
sample_smiles=CC(C)n1cnc2c(NCc3ccccc3)nc(NCCCO)nc21 assay_metric="residual activity" unit_info=% observed=83
sample_smiles=CC[n+]1c(/C=C/N(C)c2ccccc2)n(-c2ccccc2)c2ccc(-c3nc4ccccc4s3)cc21 assay_metric="residual activity" unit_info=% observed=79
sample_smiles=O=c1cc(-c2cccc3c2Sc2ccccc2S3)oc(N2CCOCC2)c1 assay_metric="residual activity" unit_info=% observed=91

----------
molecular target: Ribosomal protein S6 kinase alpha-2 (Homo sapiens) (UniProt Q15349); settings: at 10 µM
Sequence (Q15349 whole entry): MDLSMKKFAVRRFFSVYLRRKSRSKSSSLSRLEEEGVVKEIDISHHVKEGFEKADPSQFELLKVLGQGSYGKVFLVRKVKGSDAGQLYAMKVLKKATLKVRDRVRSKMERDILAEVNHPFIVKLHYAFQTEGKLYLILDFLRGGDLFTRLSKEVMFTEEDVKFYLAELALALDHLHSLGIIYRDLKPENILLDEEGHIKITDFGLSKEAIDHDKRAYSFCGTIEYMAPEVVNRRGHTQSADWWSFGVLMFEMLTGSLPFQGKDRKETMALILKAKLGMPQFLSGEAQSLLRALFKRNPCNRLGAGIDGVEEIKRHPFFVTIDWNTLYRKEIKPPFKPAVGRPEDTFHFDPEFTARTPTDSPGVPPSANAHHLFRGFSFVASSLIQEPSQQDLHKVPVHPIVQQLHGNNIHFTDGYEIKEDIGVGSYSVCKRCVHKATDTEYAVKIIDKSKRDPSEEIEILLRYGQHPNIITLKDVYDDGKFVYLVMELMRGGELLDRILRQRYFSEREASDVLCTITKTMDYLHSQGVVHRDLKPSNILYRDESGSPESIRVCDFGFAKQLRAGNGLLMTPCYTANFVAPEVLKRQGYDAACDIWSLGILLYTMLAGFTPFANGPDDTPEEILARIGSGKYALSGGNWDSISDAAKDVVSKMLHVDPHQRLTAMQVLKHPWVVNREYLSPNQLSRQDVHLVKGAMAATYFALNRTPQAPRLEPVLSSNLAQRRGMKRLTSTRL
ASSAY_METRIC: residual activity (%)

compound="C[S+]([O-])c1ccc(-c2nc(-c3ccc(F)cc3)c(-c3ccncc3)[nH]2)cc1 (stereo not given)" observed=96
compound=COc1ccc2c(c1)/C(=C/c1cnc[nH]1)C(=O)N2 observed=4
compound=O=[N+]([O-])/C=C/c1ccc2c(c1)OCO2 observed=94
compound=CCn1cnc2c(Nc3cccc(Cl)c3)nc(N[C@@H]3CCCC[C@@H]3N)nc21 observed=5
compound=O=C1Nc2ccc3ncsc3c2/C1=C/c1c[nH]cn1 observed=-1

----------
biological target: Ribosomal protein S6 kinase alpha-5 (Homo sapiens) (UniProt O75582); conditions: at 1 µM
Sequence (O75582 whole entry, looked up): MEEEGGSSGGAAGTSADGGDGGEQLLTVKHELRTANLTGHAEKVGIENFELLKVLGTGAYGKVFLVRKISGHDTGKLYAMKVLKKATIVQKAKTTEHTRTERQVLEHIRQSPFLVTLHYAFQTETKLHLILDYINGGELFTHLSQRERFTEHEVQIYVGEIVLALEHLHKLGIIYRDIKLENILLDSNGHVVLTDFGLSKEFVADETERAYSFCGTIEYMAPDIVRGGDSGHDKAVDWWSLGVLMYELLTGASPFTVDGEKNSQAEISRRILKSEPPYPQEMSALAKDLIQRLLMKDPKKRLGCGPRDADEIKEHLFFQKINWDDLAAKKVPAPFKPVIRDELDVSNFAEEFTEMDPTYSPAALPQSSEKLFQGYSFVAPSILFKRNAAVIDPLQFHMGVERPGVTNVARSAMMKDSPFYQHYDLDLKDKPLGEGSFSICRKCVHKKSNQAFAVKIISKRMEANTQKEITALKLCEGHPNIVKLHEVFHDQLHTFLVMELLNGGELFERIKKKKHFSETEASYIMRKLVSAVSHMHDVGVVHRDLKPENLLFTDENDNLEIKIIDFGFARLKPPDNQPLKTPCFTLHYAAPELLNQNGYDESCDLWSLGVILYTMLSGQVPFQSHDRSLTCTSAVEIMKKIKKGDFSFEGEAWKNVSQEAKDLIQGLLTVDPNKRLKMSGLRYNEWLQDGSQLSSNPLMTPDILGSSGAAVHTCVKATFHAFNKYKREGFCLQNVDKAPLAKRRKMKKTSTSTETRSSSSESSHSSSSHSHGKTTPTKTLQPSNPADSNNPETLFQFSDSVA
Measured residual activity, listed per entry for reference.
ASSAY_METRIC: residual activity (%)

compound=O=C1NC(=O)c2c1c1c3ccccc3n3c1c1c2c2ccccc2n1C1CCC3O1 assay_metric="residual activity" observed=41
compound="C[S+]([O-])c1ccc(-c2nc(-c3ccc(F)cc3)c(-c3ccncc3)[nH]2)cc1 (centres undefined)" assay_metric="residual activity" observed=97
compound=c1cc(-c2cnn3cc(-c4ccc(OCCN5CCCCC5)cc4)cnc23)ccn1 assay_metric="residual activity" observed=121
compound=O=[N+]([O-])/C=C/c1ccc2c(c1)OCO2 assay_metric="residual activity" observed=125
compound=COC(=O)[C@@]1(O)C[C@H]2O[C@]1(C)n1c3ccccc3c3c4c(c5c6ccccc6n2c5c31)C(=O)NC4 assay_metric="residual activity" observed=5
compound=O=c1[nH]c2ccccc2n1C1CCN(Cc2ccc(-c3nc4cc5[nH]cnc5cc4nc3-c3ccccc3)cc2)CC1 assay_metric="residual activity" observed=132
compound=CC(C)(C)c1cc(C=C(C#N)C#N)cc(Br)c1O assay_metric="residual activity" observed=122
compound=O=C1c2ccccc2-c2nc3nnnn3nc21 assay_metric="residual activity" observed=145
compound=CCc1nc(-c2ccc(OC)cc2)[nH]c1-c1ccncc1 assay_metric="residual activity" observed=108
